Kindly state pre-steady-state target cleavage rate for each of the entries shown.
Test system: MILI (PIWIL2) piRISC loaded with piRNA #1 (26 nt);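 further: 1 nM active piRISC with 0.1 nM target library at 33 °C single turnover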
experimental details: pre-steady-state target cleavage rate (min^-1); guide: piRNA #1 5'p-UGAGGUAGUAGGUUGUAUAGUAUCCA; higher = faster piRNA-guided slicing of the target
setup conditions: auxiliary factor: 500 nM mouse GTSF1
One number for each entry.

Please review the following examples before continuing.
{"monomer sequence": "GGAGACCUUACUUUACAACCUUCUACCUCA", "pre-steady-state target cleavage rate": 0.00698}
{"monomer sequence": "GGAGACCUAUCUACACAACCUACUACCUCA", "pre-steady-state target cleavage rate": 0.072}
{"monomer sequence": "GGAGACCAGACUAUACAACCUACUACCUCA", "pre-steady-state target cleavage rate": 0.193}
{"monomer sequence": "GGAGUGGAUACUAUACAACCAACUAGCUCA", "pre-steady-state target cleavage rate": 0.00229}

Next sequence, pre-steady-state target cleavage rate to be filled in.
Field request: pre-steady-state target cleavage rate | item: GGAGACCUAUGUAUACAACCUACUAUCCUCA 0.0887

* * *

Kindly state pre-steady-state target cleavage rate for each of the entries shown.
Tested on: EfPiwi piRISC loaded with piRNA #1 (26 nt)
experimental details: pre-steady-state target cleavage rate (min^-1); auxiliary factor: 500 nM Ephydatia muelleri Gtsf1; guide: piRNA #1 5'p-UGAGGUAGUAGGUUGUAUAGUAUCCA; higher = faster piRNA-guided slicing of the target
Give bare numbers.

Please review the following examples before continuing.
{"monomer sequence": "GGAGACCAUACUAUACAACCAACUAGCUCA", "pre-steady-state target cleavage rate": 0.0061}
{"monomer sequence": "GGAGACCUUACUAUACAACCUACUACCAGA", "pre-steady-state target cleavage rate": 0.00482}
{"monomer sequence": "GGAGAGGAUACUAUACAACCAACUACCUCA", "pre-steady-state target cleavage rate": 0.00561}
{"monomer sequence": "GGAGAGGAUACUAUACAACCUACAACCUCA", "pre-steady-state target cleavage rate": 0.00428}
{"monomer sequence": "GGAGACCAUACUAUACAUCCUACUACCACA", "pre-steady-state target cleavage rate": 0.00302}

I would be grateful if you could provide pre-steady-state target cleavage rate for each of the following entries.
1. GGAGACCAUACUAUACAACCUACUAACCUCA
2. GGAGACCUUACUAUACAACCUACUACCUUA
3. GGAGUGGAUACUAUACAACCUAGUACGUCA
4. GGAGACGAUACUAUACAACCUUCUAGCUCA
5. GGAGACGAUACUAUUCAACCUUCUACCUCA

1. 0.00357
2. 0.0898
3. 0.00381
4. 0.00455
5. 0.00443

* * *

Tested on: MILI (PIWIL2) piRISC loaded with L1MC piRNA (26 nt);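 further: 1 nM active piRISC with 0.1 nM target library at 33 °C single turnover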
experimental details: pre-steady-state target cleavage rate (min^-1); guide: L1MC piRNA 5'p-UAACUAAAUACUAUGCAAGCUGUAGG; MIWI and MILI are mouse PIWI proteins and EfPiwi is from a freshwater sponge; tags in brackets are library labels; higher = faster piRNA-guided slicing of the target
setup conditions: auxiliary factor: 500 nM mouse GTSF1
quantity name: pre-steady-state target cleavage rate
Give bare numbers.

{"monomer sequence": "UCCUGGAACACGUUGCAUAGUAUUUAGUAA", "quantity name": "pre-steady-state target cleavage rate", "value measured": 0.254}
{"monomer sequence": "UCCUGGUACAGCUUGCAUAGUAUUUAGUUUA", "quantity name": "pre-steady-state target cleavage rate", "value measured": 0.375}

I would be grateful if you could provide pre-steady-state target cleavage rate for each of the following entries.
1. UCCUGGUACAGCUUGCAAUGUAUUUAGUUA
2. UCCUGGAUCACCUUGCAAAGUAUUUAGUUA

1: 0.0755; 2: 0.0687
